System: HSkMC (human skeletal muscle cells)
Assay: cytotoxicity call (relative viability < 0.9)
Details: 10 µM
In all, about 39,000 compounds went through this assay and about 1,500 (3.8%) were called active. The sample holds actives, similar compounds and a random draw of the others, so the mix is not that of the screen.
Measured metric: cytotoxicity call

>>> df
                                 chem_smiles    measured_metric  endpoint_result
 0  COc1ccc(NC(=O)Nc2cccc3c2O[C@@H](CN(C)Cc2ccc(Cl)c(Cl)c2)[C@@H](C)CN([C@H](C)CO)C3=O)cc1  cytotoxicity call         inactive
 1  COc1ccc([Si](C)(C)[C@H]2[C@H](CC(=O)N(CCO)Cc3ccccc3)O[C@@]3(C(=O)N(C)c4c(Br)cc(C)cc43)[C@@H]2C)cc1  cytotoxicity call         inactive
 2  C[C@@H]1CN([C@H](C)CO)S(=O)(=O)c2ccc(-c3cncnc3)cc2O[C@H]1CN(C)C(=O)Cc1ccncc1  cytotoxicity call         inactive
 3  Nc1[nH]ncc1-c1cc(Cl)ccc1Oc1cc(F)c(S(=O)(=O)Nc2cscn2)cc1Cl  cytotoxicity call         inactive
 4  CC(C)C[C@@H]1NC(=O)[C@@H](C(C)C)NC(=O)[C@@H]2CCCN2C(=O)[C@@H](CC(=O)O)NC(=O)[C@@H](Cc2c[nH]c3ccccc23)NC1=O  cytotoxicity call         inactive
 5  CN(C)C(=O)c1ccc(-c2cccc(-c3nc(C(=O)NCc4ccccc4)cc4c3[C@H](CCO)N([S@@](=O)C(C)(C)C)C4)c2)cc1  cytotoxicity call         inactive
 6  C[C@@H]1CN([C@@H](C)CO)C(=O)c2cccc(NC(=O)Nc3ccc(F)cc3)c2O[C@H]1CN(C)Cc1ccc(Cl)c(Cl)c1  cytotoxicity call         inactive
 7     CC1(C)C=Cc2c(nc3ccccc3c2NCc2ccccc2)C1  cytotoxicity call         inactive
 8  CN(C)C(=O)c1cccc(-c2cccc(-c3nc(C(=O)NC4CCCCC4)cc4c3[C@H](CCO)N([S@@](=O)C(C)(C)C)C4)c2)c1  cytotoxicity call         inactive
 9  COc1cccc(CNC(=O)c2cc3c(c(-c4cccc(-c5ccc(C#N)cc5)c4)n2)[C@H](CCO)N([S@@](=O)C(C)(C)C)C3)c1  cytotoxicity call         inactive
10                    O=C(O)c1ccnc2nc[nH]c12  cytotoxicity call         inactive
11  C[C@@H](O[C@H]1OCCN(Cc2n[nH]nc2CN(C)C)[C@H]1c1ccc(F)cc1)c1cc(C(F)(F)F)cc(C(F)(F)F)c1  cytotoxicity call         inactive
12  C[C@H](CO)N1C[C@H](C)[C@@H](CN(C)S(=O)(=O)c2cn(C)cn2)Oc2ccc(NC(=O)C3CCCCC3)cc2CC1=O  cytotoxicity call         inactive
13  C[C@@H]1CN([C@H](C)CO)C(=O)c2cccc(NS(=O)(=O)c3cn(C)cn3)c2O[C@H]1CN(C)C(=O)Nc1ccc(F)cc1  cytotoxicity call         inactive
14                     CN1CCCCC[C@@H]1C(=O)O  cytotoxicity call         inactive
15        O=C(O)C[C@](O)(Cc1ccc(O)cc1)C(=O)O  cytotoxicity call         inactive
16  CC(C)[C@H]1C(=O)N[C@@H](CCCNC(=N)N)C(=O)NCC(=O)N[C@@H](CC(=O)O)C(=O)N[C@H](Cc2ccccc2)C(=O)N1C  cytotoxicity call         inactive
17  C[C@H](CO)N1C[C@H](C)[C@H](CN(C)CC2CCOCC2)Oc2ncc(C#Cc3cccc(F)c3)cc2C1=O  cytotoxicity call         inactive
18  C[C@@H]1CN([C@H](C)CO)C(=O)c2cccc(NC(=O)Nc3ccc(F)cc3)c2O[C@@H]1CN(C)Cc1ccc(Cl)c(Cl)c1  cytotoxicity call         inactive
19  C[C@H](CO)N1C[C@H](C)[C@H](CN(C)C(=O)NC2CCCCC2)Oc2cc(-c3cccnc3)ccc2S1(=O)=O  cytotoxicity call         inactive
20  C[C@@H]1CN([C@H](C)CO)C(=O)c2cc(NC(=O)CCCN(C)C)ccc2O[C@H]1CN(C)Cc1ccncc1  cytotoxicity call         inactive
21  C[C@@H]1CN([C@H](C)CO)S(=O)(=O)c2ccc(C#C[C@@H](C)O)cc2O[C@H]1CN(C)C  cytotoxicity call         inactive
